tested on: LOX IMVI melanoma; experiment: NCI tumour cell line growth inhibition, 48 h
Collected TGI values appear next to each entry.
Number in µM, nothing else.

Please review the following examples before continuing.
[
  {
    "compound": "COc1cc2c(cc1OCCNC(=O)/C=C1\\C[C@H]3C=Nc4cc(OCc5ccccc5)c(OC)cc4C(=O)N3C1)N=C[C@@H]1CCCN1C2=O",
    "unit_tag": "µM",
    "observed": 7.31
  },
  {
    "compound": "COC1(CC[C@@H](C)COC2OC(CO)C(O)C(O)C2O)OC2C[C@H]3[C@@H]4CC[C@H]5C[C@@H](OC6OC(CO)C(OC7OC(CO)C(O)C(O)C7O)C(O)C6OC6OC(C)C(O)C(O)C6O)[C@H](O)C[C@]5(C)[C@H]4CC[C@]3(C)C2[C@@H]1C (some centres not stated)",
    "unit_tag": "µM",
    "observed": 3.22
  },
  {
    "compound": "Nc1c(C(=O)c2ccc(Cl)c(Cl)c2)[nH]c(NCc2ccccc2)c1C(=S)Nc1ccccc1",
    "unit_tag": "µM",
    "observed": 4.53
  },
  {
    "compound": "COC(=O)c1c2c(cc3c1CC1(Cc4cc5c(c(C=O)c4C1)CCC5)C3)CCC2 (configuration not stated)",
    "unit_tag": "µM",
    "observed": 56.5
  },
  {
    "compound": "COc1cc2c(/C=C3\\C(=O)Nc4ccccc43)c[nH]c2cc1C",
    "unit_tag": "µM",
    "observed": 4.19
  }
]

Which TGI value belongs to `N#Cc1c(-c2ccc([N+](=O)[O-])cc2)c(C#N)c(=O)n(NS(=O)(=O)c2ccccc2)c1S` ? 38

Entry COC1=CC(c2ccc[nH]2)=N/C1=C\c1[nH]c(C)c(C(=O)CCCCCCCCC(=O)O[C@H]2CC[C@H]3C4CCc5cc(O)ccc5C4CC[C@]23C)c1C (some centres not stated) please 0.267

---

test system: KM12 colon; experiment: NCI tumour cell line growth inhibition, 48 h
quantity_measured: TGI

[
  {
    "compound": "COc1cc(C)c2c(c1)CN1CN2Cc2cc(OC)cc(C)c21",
    "system_name": "KM12 colon",
    "TGI": "> 100 µM"
  }
]

Which TGI value belongs to `CSC(SC)=C(C(=O)c1ccc(Cl)cc1)n1c(=O)sc2cc(Br)ccc21` ? > 100 µM

Entry CC(Nc1ccc(Cl)cc1)c1ccncc1 (configuration not stated) please > 100 µM

Entry CC(O)c1nc(C#N)c(N)o1 (configuration not stated) please > 100 µM

Entry CN(CCCCCl)P(=O)(OCc1ccc([N+](=O)[O-])o1)OCC1OC(n2ccc(N)nc2=O)C(O)C1O (configuration not stated) please 34.6 µM

Entry O=C1CC23CCCCCCCCCCC2(C1)CC(=O)C3 (configuration not stated) please 45 µM

Entry `O=c1c2cccnc2ncn1CCCN1CCCCC1` please > 100 µM

Entry `O=C1c2ccccc2-c2nc3ccncc3n21` please > 100 µM

---

Collected TGI values appear next to each entry.
test system: KM12 colon; assay: NCI tumour cell line growth inhibition, 48 h
Number in µM, nothing else.

[
  {
    "compound": "COC1(CC[C@@H](C)COC2OC(CO)C(O)C(O)C2O)OC2C[C@H]3[C@@H]4CC[C@H]5C[C@@H](OC6OC(CO)C(OC7OC(CO)C(O)C(O)C7O)C(O)C6OC6OC(C)C(O)C(O)C6O)[C@H](O)C[C@]5(C)[C@H]4CC[C@]3(C)C2[C@@H]1C (stereo partly drawn)",
    "unit_tag": "µM",
    "TGI": 5.02
  }
]

In the following, a different compound is considered.
Which TGI value belongs to CCC1(O)CC(CCN(Cc2ccccc2)C(=O)OCc2ccccc2)C(OCc2ccccc2)C1O (stereo not drawn) ? 27.3

---

tested on: CAKI-1 renal; assay: NCI tumour cell line growth inhibition, 48 h
Collected TGI values appear next to each entry.

Please review the following examples before continuing.
[
  {
    "compound": "COC1(CC[C@@H](C)COC2OC(CO)C(O)C(O)C2O)OC2C[C@H]3[C@@H]4CC[C@H]5C[C@@H](OC6OC(CO)C(OC7OC(CO)C(O)C(O)C7O)C(O)C6OC6OC(C)C(O)C(O)C6O)[C@H](O)C[C@]5(C)[C@H]4CC[C@]3(C)C2[C@@H]1C (some centres undefined)",
    "TGI": "4.29 µM"
  },
  {
    "compound": "Cc1cc(=O)[nH]c(NNC(C#N)c2cccc([N+](=O)[O-])c2)n1 (centres undefined)",
    "TGI": "> 100 µM"
  },
  {
    "compound": "Cc1nnc2n1N=C(c1ccccc1)C(c1ccccc1)S2 (centres undefined)",
    "TGI": "> 100 µM"
  },
  {
    "compound": "Nc1cc2c3c(cccc3c1)C(=O)N(CCN1CCCC1)C2=O",
    "TGI": "5.83 µM"
  },
  {
    "compound": "C=C(Br)CN=CN(C)C",
    "TGI": "> 100 µM"
  },
  {
    "compound": "COC(=O)C(C(=O)C(=O)Nc1c(C)cccc1C(C)(C)C)c1nc2ccc(Cl)cc2[nH]c1=O (centres undefined)",
    "TGI": "> 100 µM"
  }
]

Which TGI value belongs to `CCOC(=O)Nc1ccc2nc(-c3cscn3)[nH]c2c1` ? > 100 µM

Entry `O=C1c2cccc3cccc(c23)C(=O)N1CCCCCN1CCN(CCN=c2cc3n(-c4ccc(Cl)cc4)c4ccccc4nc-3cc2Nc2ccc(Cl)cc2)CC1` please 20.5 µM

Entry O=c1[nH]c(C2CCCN2)nc2c1oc1ccc(Cl)cc12 (centres undefined) please > 100 µM

---

tested on: COLO 205 colon; experiment: NCI tumour cell line growth inhibition, 48 h
quantity_measured: TGI

Please review the following examples before continuing.
[
  {
    "compound": "COC(=O)c1sc(=O)sc1SCc1cccc(CSc2sc(=O)sc2C(=O)OC)c1",
    "TGI": "> 100 µM"
  },
  {
    "compound": "CCOC(=O)c1c(-c2ccc(OC)cc2)ccn1C",
    "TGI": "> 10 µM"
  },
  {
    "compound": "Oc1ccc(Cl)cc1C=Nc1cnc2ccccc2c1",
    "TGI": "> 100 µM"
  },
  {
    "compound": "O=S(=O)(Nc1nc2ccccc2nc1N1CCCCCC1)c1ccccc1",
    "TGI": "> 100 µM"
  },
  {
    "compound": "CCOc1ccc(NC(=O)/C(CC(=O)c2c[n+](=O)c3ccccc3n2[O-])=N\\OCCCc2ccccc2)cc1",
    "TGI": "> 100 µM"
  },
  {
    "compound": "CC1=C(C)C(=O)C(C2=CC(=O)c3ccccc3C2=O)=C(C2=CC(=O)c3ccccc3C2=O)C1=O",
    "TGI": "9.77 µM"
  }
]

Which TGI value belongs to COC(=O)C1C=CCC2CCCCC21N1CCCC1 (configuration not stated) ? > 100 µM

---

Collected TGI values appear next to each entry.
test system: NCI/ADR-RES ovarian; experiment: NCI tumour cell line growth inhibition, 48 h

Please review the following examples before continuing.
[
  {
    "molecule": "O=CCCCCCOCc1ccccc1",
    "quantity_measured": "TGI",
    "observed": "> 100 µM"
  },
  {
    "molecule": "COc1ccc(-c2ccc(C(=O)C=P(c3ccccc3)(c3ccccc3)c3ccccc3)cc2)cc1",
    "quantity_measured": "TGI",
    "observed": "37.5 µM"
  },
  {
    "molecule": "O=C1NC(O)c2cc3ccccc3cc2O1 (stereo not given)",
    "quantity_measured": "TGI",
    "observed": "> 100 µM"
  },
  {
    "molecule": "O=S(=O)(NC1=NCCN1C(=S)SN1CCn2c1nsc2=S)c1ccc(Cl)cc1",
    "quantity_measured": "TGI",
    "observed": "60.8 µM"
  },
  {
    "molecule": "COC(=O)C1=C(CCCCO[Si](C)(C)C(C)(C)C)NC(=O)N2[C@H](CCOCc3ccccc3)CC[C@@H]12",
    "quantity_measured": "TGI",
    "observed": "> 100 µM"
  },
  {
    "molecule": "CCOC(=O)NC(=S)N(CC(=O)c1cc(OC)c(OC)c(OC)c1)c1ccc(Cl)cc1",
    "quantity_measured": "TGI",
    "observed": "> 100 µM"
  },
  {
    "molecule": "C[C@]12CC[C@H]3[C@@H](CC=C4C[C@@H](N5CCCC5)CC[C@@]43C)[C@@H]1C[C@H](N1CCCCC1)[C@@H]2O",
    "quantity_measured": "TGI",
    "observed": "> 100 µM"
  },
  {
    "molecule": "COc1cc2c(cc1OC)C(=O)N(c1ccc(OCCN3CCCC3)cc1)C2",
    "quantity_measured": "TGI",
    "observed": "> 100 µM"
  }
]

Which TGI value belongs to Nc1[nH]c(=O)nc2c1ncn2C1OC(CO)C(O)C1O (stereo not given) ? 51.1 µM

Entry `Oc1ccc(Cl)cc1C=Nc1cnc2ccccc2c1` please > 100 µM
